# System: MALME-3M melanoma
# testMethodNotes: NCI tumour cell line growth inhibition, 48 h
quantityKind: GI50

Consider the worked cases shown below.
INSERT INTO results (compound, quantitykind, recordedresult) VALUES
  ('Nc1ccc2c3c(n(CCCCl)c(=O)c2c1)-c1cc2c(cc1C3=O)OCO2', 'GI50', '7.79 µM'),
  ('O=S(=O)(c1ccc(N=C2NN=C(c3c[nH]c4ccccc34)CS2)cc1)N1CCOCC1', 'GI50', '34.8 µM'),
  ('c1cn2cc(-c3ccc4ncn(C5CCCCC5)c4c3)nc(-c3ccc4c(c3)ncn4C3CCCCC3)c2n1', 'GI50', '2.11 µM'),
  ('O=C(Nc1cc[c]([Sb](=[O])([OH])[OH])cc1)c1ccccc1', 'GI50', '> 100 µM'),
  ('NC(=N\N=C/c1cccc([N+](=O)[O-])c1)/C(N)=N\N=C/c1cccc([N+](=O)[O-])c1', 'GI50', '> 100 µM'),
  ('CC[O-].CC[O-].O=C1C(c2ccccc2)=C([O-])c2ccccc21.O=C1C(c2ccccc2)=C([O-])c2ccccc21.[Ti+4]', 'GI50', '> 100 µM'),
  ('CCC[CH2][Sn]([CH2]CCC)([O]C(=O)C(N)CSC)[O]C(=O)C(N)CSC (centres undefined)', 'GI50', '7.19 µM'),
  ('O=c1[nH]ccc2nc(N3CCC(O)CC3)nc(Nc3cccc(C(F)(F)F)c3)c12', 'GI50', '2.61 µM');

The compound listed as COc1cc2c(cc1OCCCCCCN1CCN(c3ncnc4ccccc34)CC1)N=CC1CCCN1C2=O (centres undefined) has a reported GI50 of 0.158 µM

The compound listed as CCN=c1cc2sc3cc(NCC)c(C)cc3nc-2cc1C has a reported GI50 of 0.782 µM

The compound listed as COc1cccc(-c2nc3sccn3c2-c2ccnc(NCCNS(=O)(=O)c3ccccc3)c2)c1 has a reported GI50 of 2.79 µM

The compound listed as O=C([CH-]C(=O)c1ccccc1)c1ccccc1.O=C([CH-]C(=O)c1ccccc1)c1ccccc1.O=C([CH-]C(=O)c1ccccc1)c1ccccc1.[OH3+].[Y+3] has a reported GI50 of 14 µM

The compound listed as O=C(CC12CC3CC(CC(C3)C1)C2)NCCOCCOCCOCCNC(=O)c1cc2c(o1)C(=O)c1ccccc1C2=O has a reported GI50 of 0.157 µM

The compound listed as NC1CCCCC1N.O=S(=O)([O-])CCCN1CCOCC1.O=S(=O)([O-])CCCN1CCOCC1.[Pt+4] has a reported GI50 of 5.23 µM

* * *

# Test system: EKVX NSCLC
# testMethodNotes: NCI tumour cell line growth inhibition, 48 h
quantityKind: TGI

Consider the worked cases shown below.
INSERT INTO measurements (molecule, recordedresult) VALUES
  ('C=C1CC(C)(COc2ccc3ccc(=O)oc3c2)OC1=O (stereo unspecified)', '26.7 µM'),
  ('COC(=O)C1=C(\c2ccccc2)c2ccccc2C(=O)N(C2CCCCC2)/C=C\1', '> 100 µM'),
  ('CCC[CH2][Sn]([CH2]CCC)([O]C(=O)C(N)CSC)[O]C(=O)C(N)CSC (stereo unspecified)', '27.1 µM');

The molecule listed as COc1cc(NCc2ccc3nc(OC)c(OC)nc3c2)cc(OC)c1OC has a reported TGI of > 100 µM

The molecule listed as CCOc1ccc(Nc2nc(-c3ccc4c(c3)NC(=O)CO4)cs2)cc1 has a reported TGI of > 100 µM

The molecule listed as N=C(N)c1csc([C@@H]2O[C@H](CO)[C@@H](O)[C@H]2O)n1 has a reported TGI of > 100 µM

The molecule listed as O=C(C1C(c2ccccc2)N1C(c1ccccc1)c1ccccc1)C1C(c2ccccc2)N1C(c1ccccc1)c1ccccc1 (stereo unspecified) has a reported TGI of > 100 µM

* * *

# Tested on: T-47D breast
# testMethodNotes: NCI tumour cell line growth inhibition, 48 h
quantityKind: TGI (µM)
Just the number in µM, nothing appended.

Consider the worked cases shown below.
INSERT INTO results (molecule, targetofassay, recordedresult) VALUES
  ('CCCN1CCN(c2ccc3nc(-c4ccc5nc(-c6cc(OC)ccc6OC)[nH]c5c4)[nH]c3c2)CC1', 'T-47D breast', 54.1),
  ('O=C(CC12CC3CC(CC(C3)C1)C2)NCCOCCOCCOCCNC(=O)c1cc2c(o1)C(=O)c1ccccc1C2=O', 'T-47D breast', 5.86),
  ('CC(=O)OC1COC(n2c(-c3ccc(Cl)cc3)cc(-c3ccccc3)c(C#N)c2=S)C(OC(C)=O)C1OC(C)=O (stereo not given)', 'T-47D breast', 54),
  ('O=S(=O)(c1ccc(N=C2NN=C(c3c[nH]c4ccccc34)CS2)cc1)N1CCOCC1', 'T-47D breast', 78.6),
  ('N#Cc1sc2c(c1OC(=O)c1cccs1)c(=O)n(-c1ccccc1)c(=S)n2-c1ccccc1', 'T-47D breast', 34.1);

Entry N#Cc1c(Cl)c2ccccc2n2c1nc1ccccc12 : TGI on T-47D breast = 46.8

Entry Cc1cc(I)cc(CN(C)CCN2CCCC2)c1O : TGI on T-47D breast = 76

Entry O=C(N/N=C/c1ccccc1Cl)c1ccccc1Nc1ccnc(C(F)(F)F)c1 : TGI on T-47D breast = 6.41

* * *

// reported GI50 for each item listed
# System: MOLT-4 leukemia
# testMethodNotes: NCI tumour cell line growth inhibition, 48 h

Consider the worked cases shown below.
INSERT INTO assay_data (smilesnotation, targetofassay, quantitykind, recordedresult) VALUES
  ('CC(C)CNc1nc(-c2ccccc2)nc2ccccc12', 'MOLT-4 leukemia', 'GI50', '13.7 µM'),
  ('CC/C(=C(/CC)c1ccc(O)cc1)c1ccc([O-])cc1.CC/C(=C(/CC)c1ccc(O)cc1)c1ccc([O-])cc1.O=C([CH-]C(=O)c1ccccc1)c1ccccc1.O=C([CH-]C(=O)c1ccccc1)c1ccccc1.[Ti+4]', 'MOLT-4 leukemia', 'GI50', '4.93 µM'),
  ('COc1cc2cc(C(=O)Nc3cc(N)c4ccccc4c3CCCl)[nH]c2c(OC)c1OC', 'MOLT-4 leukemia', 'GI50', '0.0132 µM'),
  ('NC(=O)c1ccc2c(-c3ccnc(NCCCO)n3)c(-c3ccc(F)cc3)nn2c1', 'MOLT-4 leukemia', 'GI50', '> 25 µM');

Entry COc1cc2c(Oc3ccc4[nH]c(C)cc4c3F)ccnc2cc1OCC1(N)CC1 : GI50 on MOLT-4 leukemia = 0.971 µM

Entry C=CCN1C=CC(=O)[C@H](O[Si](C)(C)C(C)(C)C)[C@@H]1/C=C/c1ccccc1 : GI50 on MOLT-4 leukemia = 10.7 µM

* * *

// reported TGI for each item listed
# System: CCRF-CEM leukemia
# testMethodNotes: NCI tumour cell line growth inhibition, 48 h

Consider the worked cases shown below.
INSERT INTO results (compound, targetofassay, recordedresult) VALUES
  ('O=C(O)c1ccccc1C(=O)Nn1cnnc1', 'CCRF-CEM leukemia', '> 100 µM'),
  ('O=C(C[n+]1ccccc1)N=N/C(C(=O)Nc1c(Cl)c(O)c2ccccc2c1O)=C1/C(=O)Oc2cc(O)ccc2C1=O', 'CCRF-CEM leukemia', '> 100 µM'),
  ('COc1ccc(-c2ccc(-c3ccc(C(=N)N)s3)s2)cc1Cl', 'CCRF-CEM leukemia', '4.72 µM'),
  ('CC(=O)NC1C(O)C(O)C(CO)OC1n1ncc(=O)[nH]c1=O (stereo not given)', 'CCRF-CEM leukemia', '> 100 µM'),
  ('O=c1[nH]c(=S)[nH]n1C(=S)n1[nH]c(=S)[nH]c1=O', 'CCRF-CEM leukemia', '> 100 µM');

The compound listed as O=C1c2c(ccc3c2CCC3)CC12Cc1cc3c(cc1C2)CCC3 has a reported TGI of > 100 µM

The compound listed as C#C[C@]1(O)CCC2C3CCc4cc(Oc5nc(F)nc(-c6c7cc8ccccc8cc7c7n6CCS7)n5)ccc4C3CCC21C (stereo not given in full) has a reported TGI of > 100 µM

The compound listed as COc1ccc(CNc2c3ccccc3nc3ccc(OC)cc23)cc1 has a reported TGI of 13.3 µM

The compound listed as COc1ccc(/C=C2\CCCCCC2=O)cc1 has a reported TGI of > 100 µM

The compound listed as O=C(Nc1ccc(F)cc1)C(=O)C(C1OC(=O)c2ccccc21)[N+](=O)[O-] (stereo not given) has a reported TGI of > 100 µM

* * *

# Tested on: SK-MEL-28 melanoma
# testMethodNotes: NCI tumour cell line growth inhibition, 48 h
// reported TGI for each item listed

Consider the worked cases shown below.
INSERT INTO assay_data (compound, recordedresult) VALUES
  ('O=CN1N=C(c2ccc(Cl)cc2)CC1c1cccc(Nc2ccnc3cc(Cl)ccc23)c1 (stereo not given)', '31.2 µM'),
  ('COc1cc(C2c3cc4c(cc3OC(Nc3ccccc3)C2C)OCO4)cc(OC)c1OC (stereo not given)', '> 100 µM'),
  ('NC(=S)N/N=C(\C(=O)Nc1cccc([N+](=O)[O-])c1)c1nc2ccc([N+](=O)[O-])cc2[nH]c1=O', '> 100 µM'),
  ('[N-]=[NH+]CC(=O)OC(COCc1ccccc1)COCc1ccccc1', '> 100 µM'),
  ('COc1ccc2c(c1)OC1=C(C(=O)OC1)C2c1cc(OC)c(OC)c(OC)c1 (stereo not given)', '> 100 µM');

The compound listed as CCCCCCCCCCCCC(O)C1CCC(C(O)CCCCCCC(O)CCCCCCCC2=CC(C)OC2=O)O1 (stereo not given) has a reported TGI of > 100 µM
